Reference source for all entries: paper PMC5426754

tested-on: Ezrin N-ERMAD (N-terminal ERM domain, FERM domain, Met1-Lys296) (human, UniProt P15311 1-296)
assay-details: fluorescence polarisation; direct FP; 50 nM fluorescent tracer (Fl-C-ERMAD variants or Fl-NMIIA) titrated with S100 proteins or N-ERMAD; 20 mM HEPES pH 7.5, 150 mM NaCl, 0.1 mM TCEP, 1 mM CaCl2, 0.05% Tween-20; triplicates; quadratic binding equation
run-conditions: both partners purified
measured-quantity: Kd (nM)
Answers are plain numbers, in nM.

Input line: Identify measured Kd corresponding to Fl-C-ERMAD (fluorescently labeled ezrin C-ERMAD, Cys-Lys516-Leu586) (domain or fragment, human, Alexa Fluor 568 C5 maleimide on the N-terminal cysteine (the same paragraph also calls the peptides fluorescein-conjugated), cysteine cloned before Lys516, carries the fluorescent label; human ezrin C-ERMAD, Lys516-Leu586; also called fluorescently-labeled C-ERMAD; not shown: GST, N-terminal, cleaved) CKRITEAEKNERVQRQLLTLSSELSQARDENKRTHNDIIHNENMRQGRDKYKTLRQIRQGNTKQRIDEFEAL
Output line: 8.6
